PROCEDURE_TEXT: Phase 1 study in healthy human volunteers, plasma pharmacokinetics
Assay type: in vivo
EXPERIMENTAL_CONDITIONS: both sexes, human, single dose 150 mg, oral solution, fasted healthy subjects, read-out: Tmax (hr) AVE ± SD
Method: The study is divided into two phases (Single and Multiple Dose Phases). One cohort in the Multiple Dose Phase receives twice daily dosing. Placebo solution to match. The finished aqueous solution is prepared in the clinical study site pharmacy within 24 hours of dosing. The study drug is stored at room temperature between 15-30° C. (59-86° F.) and protected from light. Route of Administration: All doses are administered orally with approximately 100 mL of water rinse. […]
PARAMETER_MEASURED: Tmax (h)
Give bare numbers, in h.

Query: Determine its reported Tmax: `COc1ccc(-c2ccc(Cn3c(CC(C)(C)C(=O)O)c(SC(C)(C)C)c4cc(OCc5ccccn5)ccc43)cc2)cn1`
Reply: 2.5

* * *

PROCEDURE_TEXT: Phase 1 study in healthy human volunteers, plasma pharmacokinetics
Type: in vivo
EXPERIMENTAL_CONDITIONS: both sexes, human, single dose 50 mg, oral solution, fasted healthy subjects, read-out: t1/2 (hr) AVE ± SD (converted)
PARAMETER_MEASURED: half-life (h)
One number for each entry, in h.

Query: Provide half-life value for the following compound: `COc1ccc(-c2ccc(Cn3c(CC(C)(C)C(=O)O)c(SC(C)(C)C)c4cc(OCc5ccccn5)ccc43)cc2)cn1`
Reply: 7.7

* * *

TEST_TARGET: CYP1A2 (Homo sapiens)
Sequence (P05177 1-516): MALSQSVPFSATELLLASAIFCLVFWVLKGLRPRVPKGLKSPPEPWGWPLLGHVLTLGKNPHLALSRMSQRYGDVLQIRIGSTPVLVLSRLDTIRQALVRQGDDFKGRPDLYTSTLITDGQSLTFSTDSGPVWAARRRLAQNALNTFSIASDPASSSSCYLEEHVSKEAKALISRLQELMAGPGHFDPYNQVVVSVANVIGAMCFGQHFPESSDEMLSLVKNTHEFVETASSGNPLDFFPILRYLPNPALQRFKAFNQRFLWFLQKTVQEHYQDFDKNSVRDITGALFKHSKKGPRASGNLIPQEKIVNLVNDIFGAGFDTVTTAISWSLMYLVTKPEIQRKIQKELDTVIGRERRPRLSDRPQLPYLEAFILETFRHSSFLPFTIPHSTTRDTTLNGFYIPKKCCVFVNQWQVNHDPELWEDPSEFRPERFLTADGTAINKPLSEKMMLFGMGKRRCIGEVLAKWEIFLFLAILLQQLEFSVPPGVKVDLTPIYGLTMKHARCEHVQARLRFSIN
PARAMETER_MEASURED: IC50

Query: Read off the recorded IC50 for `COc1ccc(-c2ccc(Cn3c(CC(C)(C)C(=O)O)c(SC(C)(C)C)c4cc(OCc5ccccn5)ccc43)cc2)cn1`
Reply: > 50 µM

* * *

PROCEDURE_TEXT: Phase 1 study in healthy human volunteers, plasma pharmacokinetics
Assay type: in vivo
EXPERIMENTAL_CONDITIONS: both sexes, human, single dose 300 mg, oral solution, fasted healthy subjects, read-out: Tmax (hr) AVE ± SD
PARAMETER_MEASURED: Tmax

Query: Fill in reported Tmax for this entry: `COc1ccc(-c2ccc(Cn3c(CC(C)(C)C(=O)O)c(SC(C)(C)C)c4cc(OCc5ccccn5)ccc43)cc2)cn1`
Reply: 3.2 h
